Assay Name: MTT cell viability (cytotoxicity) assay
Assay type: cell-based
Condition Label: human, HCT116 cells
Recorded measurements of IC50 at 24 h, one per entry
Reply numerically in µM, unit not repeated.

O=C(/C=C1\NCC2c3ccccc3CCN2C1=O)c1cccc(F)c1 (centres unmarked): 165
O=C(C=C1NCC2CCCCN2C1=O)c1cccc(F)c1 (centres unmarked): 168

Kindly consider the entry below.
Lab book: IC50 at 24 h of O=C(C=C1NCC2c3ccccc3CCN2C1=O)C1=CCCCC1 (centres unmarked) noted as 171

----------
Assay Name: physchem
Condition Label: PAMPA, pH 7.4
Value Type: Papp (nm/s)
Please reply with the bare figure in nm/s and do not write the unit itself.

Measured Papp, CC(C)NCC(O)COc1cccc2ccccc12 (stereo not shown) : 647
